# measuredTarget: T1, GST-human NOGO-A56 (human, UniProt Q9NQC3 586-785)
# T1 construct: GST-tagged fusion expressed in E. coli BL21 from pGEX-6P1; also called hNOGO; human NOGO 5+6 GST; not shown: Glutathione S-transferase tag encoded by vector pGEX-6P1 (N-terminal, with vector linker)
# T1 sequence: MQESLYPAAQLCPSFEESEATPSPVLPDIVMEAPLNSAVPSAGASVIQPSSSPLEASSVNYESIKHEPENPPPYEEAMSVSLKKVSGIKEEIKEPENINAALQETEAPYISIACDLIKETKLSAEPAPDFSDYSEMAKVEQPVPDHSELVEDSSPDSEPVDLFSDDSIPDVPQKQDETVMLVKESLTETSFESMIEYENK
# method: SPR (Biacore), GST-human NOGO-A56 immobilised, purified antibody as analyte; single experiment
metric: kon (M⁻¹ s⁻¹)
Express your answer in M⁻¹ s⁻¹, writing the number without its unit.

H20L16 (antibody, human IgG1, kappa, V domains shown, human gamma1 mutated constant region, human kappa; also called H20L16 FL) VH: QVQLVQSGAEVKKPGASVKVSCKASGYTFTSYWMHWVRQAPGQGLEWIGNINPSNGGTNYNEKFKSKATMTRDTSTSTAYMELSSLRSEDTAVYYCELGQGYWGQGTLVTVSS VL: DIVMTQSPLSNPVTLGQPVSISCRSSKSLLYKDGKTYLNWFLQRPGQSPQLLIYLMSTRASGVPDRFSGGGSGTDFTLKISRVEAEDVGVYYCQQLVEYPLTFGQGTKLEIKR ... 5.24e+06

Q: Data request, read-out kon, for H1L11 (antibody, human IgG1, kappa, V domains shown) VH: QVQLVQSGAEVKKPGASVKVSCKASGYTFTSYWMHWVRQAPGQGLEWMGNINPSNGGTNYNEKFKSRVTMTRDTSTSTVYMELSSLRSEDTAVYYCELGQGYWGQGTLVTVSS VL: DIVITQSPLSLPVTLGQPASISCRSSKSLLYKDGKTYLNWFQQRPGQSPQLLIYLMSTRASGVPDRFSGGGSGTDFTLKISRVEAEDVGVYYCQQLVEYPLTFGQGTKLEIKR
Result: 1.34e+06

Q: And H24L16 (antibody, human IgG1, kappa, V domains shown, human gamma1 mutated constant region, human kappa) VH: QVQLVQSGAEVKKPGASVKVSCKASGYTFTSYWMHWVKQRPGQGLEWIGNINPSNGGTNYNEKFKSKATLTVDTSTSTAYMELSSLRSEDTAVYYCELGQGYWGQGTLVTVSS VL: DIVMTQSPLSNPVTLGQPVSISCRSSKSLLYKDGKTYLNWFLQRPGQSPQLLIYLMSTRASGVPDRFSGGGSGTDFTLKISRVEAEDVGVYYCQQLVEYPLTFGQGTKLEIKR ?
Result: 2.3e+06

Q: What do we get for H6L13 (antibody, human IgG1, kappa, V domains shown) VH: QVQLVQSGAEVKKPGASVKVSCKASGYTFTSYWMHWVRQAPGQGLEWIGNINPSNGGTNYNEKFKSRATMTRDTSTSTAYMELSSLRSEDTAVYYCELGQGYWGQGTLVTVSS VL: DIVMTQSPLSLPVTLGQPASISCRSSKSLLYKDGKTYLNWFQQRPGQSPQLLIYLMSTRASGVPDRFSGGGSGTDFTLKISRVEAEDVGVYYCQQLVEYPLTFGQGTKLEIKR ?
Result: 2.02e+06

Q: Next: HcLc (antibody, human IgG1, kappa, V domains shown, also called chimera of 2A10; 2A10 chimeric antibody) VH: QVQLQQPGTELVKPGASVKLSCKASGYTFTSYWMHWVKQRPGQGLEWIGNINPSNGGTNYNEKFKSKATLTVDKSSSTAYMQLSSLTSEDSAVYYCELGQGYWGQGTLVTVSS VL: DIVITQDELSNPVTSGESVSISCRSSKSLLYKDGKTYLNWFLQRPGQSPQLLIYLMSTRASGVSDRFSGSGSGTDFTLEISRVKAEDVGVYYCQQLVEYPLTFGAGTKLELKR
Result: 2.46e+06

Q: Proceed to H23L16 (antibody, human IgG1, kappa, V domains shown, human gamma1 mutated constant region, human kappa) VH: QVQLVQSGAEVKKPGASVKVSCKASGYTFTSYWMHWVKQRPGQGLEWIGNINPSNGGTNYNEKFKSKATMTVDTSTSTAYMELSSLRSEDTAVYYCELGQGYWGQGTLVTVSS VL: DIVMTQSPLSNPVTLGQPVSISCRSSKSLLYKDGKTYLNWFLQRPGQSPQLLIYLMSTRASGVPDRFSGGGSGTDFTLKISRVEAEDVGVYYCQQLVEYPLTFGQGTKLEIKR
Result: 2.95e+06

Q: Could you do the same for H22L16 (antibody, human IgG1, kappa, V domains shown, human gamma1 mutated constant region, human kappa) VH: QVQLVQSGAEVKKPGASVKVSCKASGYTFTSYWMHWVKQRPGQGLEWIGNINPSNGGTNYNEKFKSKATMTRDTSTSTAYMELSSLRSEDTAVYYCELGQGYWGQGTLVTVSS VL: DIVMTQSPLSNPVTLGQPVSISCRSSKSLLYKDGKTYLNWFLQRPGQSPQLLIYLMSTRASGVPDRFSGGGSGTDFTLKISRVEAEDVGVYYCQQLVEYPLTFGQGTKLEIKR , please?
Result: 5.83e+06
